protocolText: Measuring of viscosity of curable compound (cone plate type rotatory viscometer)
Type: physicochemical
details: cone rotor, 50 rpm
true (1) if Viscosity (25 degrees C., mPA · s) is below 20 mPA · s. false (0) if not; exact matches included in false (0).

Request: A record lists C=CC(=O)N(CC(=O)OC)C(C)C [Example 9a] . Is its Viscosity (25 degrees C., mPA · s) below 20 mPA · s?
Response: false (0)

Request: Also need C=CC(=O)N(CC(=O)OC(C)C)C(C)C [Example 10a] , thanks.
Response: false (0)

Request: Also need C=CC(=O)N(CCCCCC)CC(=O)OC [Example 11a] , thanks.
Response: false (0)

Request: Also need C=CC(=O)N(C)C(C)C(=O)OCC (stereo not shown) [Example 14a] , thanks.
Response: true (1)

Request: Also need C=CC(=O)N(C)CC(=O)OC(C)C [Example 7a] , thanks.
Response: true (1)

Request: Also need C=CC(=O)N(CC)CC [Comparative Example 1a, N,N-diethylacrylamide, reference compound] , thanks.
Response: true (1)

// data source = patent US10781325B2
